- testSystem: HDAC1 (Homo sapiens (Human))
- Sequence (Q13547 whole entry): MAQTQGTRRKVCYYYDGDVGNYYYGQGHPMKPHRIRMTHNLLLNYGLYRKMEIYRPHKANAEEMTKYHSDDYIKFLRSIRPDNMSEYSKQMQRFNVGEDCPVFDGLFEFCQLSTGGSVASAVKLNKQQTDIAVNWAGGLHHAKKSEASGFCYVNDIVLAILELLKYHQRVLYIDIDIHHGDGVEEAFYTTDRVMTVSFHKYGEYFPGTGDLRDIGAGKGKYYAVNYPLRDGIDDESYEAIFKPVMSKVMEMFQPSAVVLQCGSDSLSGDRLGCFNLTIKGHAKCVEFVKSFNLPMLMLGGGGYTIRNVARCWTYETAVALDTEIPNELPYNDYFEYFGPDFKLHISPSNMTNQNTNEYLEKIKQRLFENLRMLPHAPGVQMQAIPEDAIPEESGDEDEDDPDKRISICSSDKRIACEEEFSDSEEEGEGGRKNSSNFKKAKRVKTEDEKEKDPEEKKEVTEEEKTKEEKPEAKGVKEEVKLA
- procedureText: IC50 assay by Nanosyn (Caliper microfluidics mobility shift detection)
- Assay type: biochemical
- statedConditions: IC50 measured by Nanosyn
parameter: pIC50
Convention used: pIC50 is expressed as -log10 of the molar concentration.

Exercise: Missing value: pIC50, HDAC1 (Homo sapiens (Human)), entry CN(Cc1ccc(/C=C/C(=O)NO)cc1)CC12CC3CC(CC(C3)C1)C2 . Fill in?
Solution: 8.92

----------
- procedureText: in vivo
- statedConditions: male, C57BL/6, mouse, po, 5 mg/kg
parameter: half-life (min)
Output spec: scalar in min, unitless text.

Exercise: Returns the measured half-life for the input molecule. Input: CN(Cc1ccc(C(=O)NO)cc1F)CC12CC3CC(CC(C3)C1)C2
Solution: 15

----------
- procedureText: Microsome stability
- statedConditions: human, microsomes
parameter: half-life (min)
Output spec: scalar in min, unitless text.

Exercise: Returns the measured half-life for the input compound. Input: CN(Cc1ccc(C(=O)NO)cc1F)CC12CC3CC(CC(C3)C1)C2
Solution: 19

----------
- procedureText: in vitro
- statedConditions: rat, microsomes
parameter: half-life

Exercise: Returns the measured half-life for the input compound. Input: CN(Cc1ccc(C(=O)NO)cc1F)CC12CC3CC(CC(C3)C1)C2
Solution: < 10 min

----------
- testSystem: UniProt:Q9BY41
- procedureText: IC50 assay by Nanosyn (Caliper microfluidics mobility shift detection)
- Assay type: biochemical
- statedConditions: IC50 measured by Nanosyn
parameter: pIC50
Convention used: pIC50 is expressed as -log10 of the molar concentration.

Exercise: Returns the measured pIC50 for the input molecule. Input: CN(Cc1ccc(/C=C/C(=O)NO)cc1)CC12CC3CC(CC(C3)C1)C2
Solution: 6.12

----------
- testSystem: UniProt Q969S8
- Sequence (Q969S8 whole entry): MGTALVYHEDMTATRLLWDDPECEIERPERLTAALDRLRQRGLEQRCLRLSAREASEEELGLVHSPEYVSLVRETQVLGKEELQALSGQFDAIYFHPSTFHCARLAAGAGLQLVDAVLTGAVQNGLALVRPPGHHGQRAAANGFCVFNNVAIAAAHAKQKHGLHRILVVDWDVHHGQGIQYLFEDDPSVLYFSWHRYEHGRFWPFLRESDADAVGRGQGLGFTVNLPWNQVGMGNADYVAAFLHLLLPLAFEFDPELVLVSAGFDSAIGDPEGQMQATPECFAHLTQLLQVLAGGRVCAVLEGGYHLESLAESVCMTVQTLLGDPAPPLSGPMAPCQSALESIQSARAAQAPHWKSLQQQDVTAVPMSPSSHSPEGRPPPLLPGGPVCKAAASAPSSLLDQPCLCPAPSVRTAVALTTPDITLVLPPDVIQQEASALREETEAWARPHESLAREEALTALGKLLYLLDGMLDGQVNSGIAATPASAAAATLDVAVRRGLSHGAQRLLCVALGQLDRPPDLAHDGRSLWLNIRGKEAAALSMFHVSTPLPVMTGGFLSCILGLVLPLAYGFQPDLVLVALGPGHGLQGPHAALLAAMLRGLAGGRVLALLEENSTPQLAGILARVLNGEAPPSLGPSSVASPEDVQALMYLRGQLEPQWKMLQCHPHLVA
- procedureText: IC50 assay by Nanosyn (Caliper microfluidics mobility shift detection)
- Format: biochemical
- statedConditions: IC50 measured by Nanosyn
parameter: IC50 (nM)
Output spec: scalar in nM, unitless text.

Exercise: Returns the measured IC50 for the input compound. Input: CN(Cc1ccc(/C=C/C(=O)NO)cc1)CC12CC3CC(CC(C3)C1)C2 [Martinostat, martinostat]
Solution: 2

----------
- testSystem: HDAC8 (Homo sapiens (Human), UniProt Q9BY41)
- Sequence (Q9BY41 whole entry): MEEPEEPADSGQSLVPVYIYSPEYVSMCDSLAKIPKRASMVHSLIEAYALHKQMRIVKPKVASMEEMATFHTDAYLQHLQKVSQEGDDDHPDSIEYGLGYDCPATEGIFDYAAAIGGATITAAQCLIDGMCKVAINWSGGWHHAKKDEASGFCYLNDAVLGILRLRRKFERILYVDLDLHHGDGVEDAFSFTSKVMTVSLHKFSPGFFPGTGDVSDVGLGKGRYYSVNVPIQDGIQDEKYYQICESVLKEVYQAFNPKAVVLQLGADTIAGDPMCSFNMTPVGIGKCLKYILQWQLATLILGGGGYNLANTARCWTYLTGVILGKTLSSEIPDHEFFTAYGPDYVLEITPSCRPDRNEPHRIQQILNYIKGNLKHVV
- procedureText: IC50 assay, BPS Biosciences fluorescence assay
- Type: biochemical
parameter: IC50

Exercise: Returns the measured IC50 for the input compound. Input: CN(Cc1ccc(/C=C/C(=O)NO)cc1)CC12CC3CC(CC(C3)C1)C2
Solution: > 1 µM

----------
- testSystem: HDAC1 (Homo sapiens (Human))
- procedureText: IC50 values of comparison compounds B-F (Table 1B)
- Type: biochemical
- statedConditions: comparison compound C, source not stated
parameter: pIC50
Convention used: pIC50 is expressed as -log10 of the molar concentration.

Exercise: Missing value: pIC50, HDAC1 (Homo sapiens (Human)), entry CN(c1ncc(C(=O)NO)cn1)C12CC3CC(CC(C3)C1)C2 . Fill in?
Solution: 7.70

----------
- testSystem: HDAC3 (Homo sapiens (Human))
- Sequence (O15379 whole entry): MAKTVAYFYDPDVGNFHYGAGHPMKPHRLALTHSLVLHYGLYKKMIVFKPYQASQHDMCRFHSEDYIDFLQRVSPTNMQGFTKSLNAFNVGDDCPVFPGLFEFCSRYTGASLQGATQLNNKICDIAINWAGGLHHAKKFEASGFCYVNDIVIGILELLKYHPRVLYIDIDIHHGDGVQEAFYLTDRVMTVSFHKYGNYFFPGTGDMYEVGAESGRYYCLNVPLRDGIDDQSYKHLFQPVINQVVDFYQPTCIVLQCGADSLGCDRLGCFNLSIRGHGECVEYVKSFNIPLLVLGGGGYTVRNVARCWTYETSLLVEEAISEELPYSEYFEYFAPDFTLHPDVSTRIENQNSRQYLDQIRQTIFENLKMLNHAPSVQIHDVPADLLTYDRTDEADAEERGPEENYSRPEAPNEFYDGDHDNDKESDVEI
- Sequence (Q9Y618 395-489 partner): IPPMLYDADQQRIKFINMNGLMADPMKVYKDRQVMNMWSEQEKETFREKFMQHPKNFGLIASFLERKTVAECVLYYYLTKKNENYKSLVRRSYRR
- procedureText: IC50 assay by Nanosyn (Caliper microfluidics mobility shift detection)
- Assay type: biochemical
- statedConditions: IC50 measured by Nanosyn
parameter: IC50 (nM)
Output spec: scalar in nM, unitless text.

Exercise: Returns the measured IC50 for the input compound. Input: CN(Cc1ccc(/C=C/C(=O)NO)cc1)CC12CC3CC(CC(C3)C1)C2
Solution: 0.3
